Task for the reader: assign each of the following binders its reported IC50(nM), FasL antigen-induced apoptosis of HepG2 cells (CellTiter-Glo ATP).
# study_system: T1, hFc-hFasL (fusion protein of human Fc fragment and human FasL extracellular region) (human, UniProt P48023 134-281)
# T1 sequence: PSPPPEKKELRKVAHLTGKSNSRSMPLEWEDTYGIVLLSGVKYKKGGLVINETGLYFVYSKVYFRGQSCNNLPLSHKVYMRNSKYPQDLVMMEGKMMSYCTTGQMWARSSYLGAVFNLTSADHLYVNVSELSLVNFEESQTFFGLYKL
# experiment: cell-based or functional assay
Numbers only, in nM.

Answered examples (3):
FL-M89 (antibody, V domains shown, Chimeric full-length antibody, tested as human IgG4 / human kappa) VH: EVQLQQSGAELVRPGVSVKISCKGSGYTFTDYTIHWVKQSHAKSLEWIGVISTYQGDASYNQKFKGKATMTVDKSSSTAYMELARLTSEDSAIYYCARFPDWDYAMDYWGQGTSVTVSS VL: DIVMTQSPASLAVSLGQRATISCKASQSVDYDGDSYMNWYQQKPGQPPKLLIYAASNLESGIPARFSGSGSGTDFTLNIHPVEEEDAATYYCQQSRELPYTFGGGTKLEIK = 0.021
FL-M05 (antibody, V domains shown, Chimeric full-length antibody, tested as human IgG4 / human kappa) VH: EVQLQQSGAELVRPGVSVKISCKGSGYTFTDYTMHWVKQSHAKSLEWIGVISTYQGDARYNQKFKGKATMTVDKSSSTAYMELARLTSEDSAIYYCARFPDWDYAMDYWGQGTSVTVSS VL: DIVLTQSPASLAVSLGQRATISCKASQSVDYDGDSYMNWYQQKPGQPPKLLIYAASNLESGIPARFSGSGSGTDFTLNIHPVEEEDAATYYCQHSRELPYTFGGGTKLEIK = 0.03
FL-M56 (antibody, V domains shown, Chimeric full-length antibody, tested as human IgG4 / human kappa) VH: EVQLQQSGPELVKPGASVKLSCKASGYTFTRFDISWVRQRPEQGLEWIGWIFPGDGSTQYNENFKGKATLTTDKSSGTAYMQLNRLTSEDSAVYFCARSLISTAMFDHWGQGTTLTVSS VL: DIVLTQSPASLAVSLGQRATISCRASKSVSTSDFSYIHWYQQKPGLPPKLLIFLASHLESGVPARFSGSGSGTDFTLNIHPVEEEDAATYYCQHSRELPRTFGGGTKLEIK = 0.02

Field: next binder
So, FL-M08 (antibody, V domains shown, Chimeric full-length antibody, tested as human IgG4 / human kappa) VH: QIQLLQSGAELVRPGVSVKISCKGSGYTFTDYAMHWVKQSHAKSLEWIGVISTYQGDANYNQKFKGKATMTVDKSSSTAYMELARLTSEDSAIYYCARFPDWDYAMDYWGQGTSVTVSS VL: EIVLTQSPASLAVSLGQRATISCKASQSVDYDGDSYMNWYQQKPGQPPKLLIYAASNLESGIPARFSGSGSGTDFTLNIHPVEEEDAATYYCQHSRELPYTFGGGTKLEIK ? Its IC50(nM), FasL antigen-induced apoptosis of HepG2 cells (CellTiter-Glo ATP) was 0.016
